target: T1, Recombinant human folate receptor alpha (FRA) (human, UniProt P15328 25-234); test: SPR, FRA on CM5 chip, parallel line analysis; reference standard = 100%
T1 construct: Immobilised on a CM5 chip by amine coupling; also called FR-alpha
T1 sequence (P15328 25-234 limits assumed): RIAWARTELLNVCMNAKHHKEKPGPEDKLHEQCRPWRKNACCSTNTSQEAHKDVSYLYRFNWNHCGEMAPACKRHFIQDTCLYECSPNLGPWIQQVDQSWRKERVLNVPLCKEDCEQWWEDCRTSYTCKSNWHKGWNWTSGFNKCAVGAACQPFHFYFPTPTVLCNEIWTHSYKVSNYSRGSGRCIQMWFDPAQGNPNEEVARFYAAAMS
measured endpoint: Measured Potency (%)
Only the number, expressed in %, is required.

Study these solved cases before continuing.
{"binder": "MORAb-003 anti-FRA antibody, lot NB810-11 (galactose supplement; harvested 14 days after initiation of culture) (antibody, human IgG1, kappa, V domains shown, N-linked neutral glycans at Asn299 in SEQ ID NO: 5) VH: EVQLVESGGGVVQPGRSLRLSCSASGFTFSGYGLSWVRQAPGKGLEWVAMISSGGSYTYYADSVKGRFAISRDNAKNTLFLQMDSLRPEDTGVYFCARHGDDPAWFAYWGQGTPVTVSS VL: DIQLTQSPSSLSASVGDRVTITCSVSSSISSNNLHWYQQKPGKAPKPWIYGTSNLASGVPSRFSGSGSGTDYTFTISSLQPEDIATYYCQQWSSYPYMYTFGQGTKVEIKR", "measured endpoint": "Measured Potency (%)", "unit label": "%", "numeric value": 84.7}
{"binder": "MORAb-003 anti-FRA antibody, lot NB810-10 (positive control; harvested 14 days after initiation of culture) (antibody, human IgG1, kappa, V domains shown, N-linked neutral glycans at Asn299 in SEQ ID NO: 5, also called Pos. ctl; positive control (round 1)) VH: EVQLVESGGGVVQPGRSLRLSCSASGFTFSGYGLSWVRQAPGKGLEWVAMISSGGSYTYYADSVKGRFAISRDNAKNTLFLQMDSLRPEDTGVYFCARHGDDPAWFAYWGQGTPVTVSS VL: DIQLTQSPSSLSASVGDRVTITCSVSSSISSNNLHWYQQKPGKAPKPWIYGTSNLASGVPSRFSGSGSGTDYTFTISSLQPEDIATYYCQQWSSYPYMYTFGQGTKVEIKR", "measured endpoint": "Measured Potency (%)", "unit label": "%", "numeric value": 85.5}

Qu. Field request: Measured Potency (%) | item: MORAb-003 anti-FRA antibody, lot NB859-26 (harvested 17 days after initiation of culture) (antibody, human IgG1, kappa, V domains shown, N-linked neutral glycans at Asn299 in SEQ ID NO: 5, also called Day 17 harvest) VH: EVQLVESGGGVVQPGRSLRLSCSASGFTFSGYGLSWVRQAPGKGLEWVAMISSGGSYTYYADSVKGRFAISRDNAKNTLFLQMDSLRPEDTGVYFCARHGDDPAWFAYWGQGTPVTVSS VL: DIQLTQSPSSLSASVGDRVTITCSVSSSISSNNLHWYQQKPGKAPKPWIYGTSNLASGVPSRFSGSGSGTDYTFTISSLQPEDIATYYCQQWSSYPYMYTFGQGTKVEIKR
Ans. 27.5
